Recorded ELISA score (ratio of phage binding to CS1-Fc vs IgG-Fc) by entry
TARGET ENTITY: T1, CS1-Fc (human, UniProt Q9NQ25 23-226)
T1 construct: also called recombinant human CS1-Fc; CS1-Fc polypeptide; not shown: Fc portion of CS1-Fc
T1 sequence: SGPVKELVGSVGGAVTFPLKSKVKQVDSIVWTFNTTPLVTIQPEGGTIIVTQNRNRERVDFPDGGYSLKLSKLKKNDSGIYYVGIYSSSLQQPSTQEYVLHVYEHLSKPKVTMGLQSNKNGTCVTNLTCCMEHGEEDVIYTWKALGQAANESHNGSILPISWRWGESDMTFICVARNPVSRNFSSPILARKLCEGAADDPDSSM
EXPERIMENTAL DETAILS: phage ELISA, CS1-Fc captured on anti-human IgG1-Fc, anti-M13-HRP, A450 target / A450 IgG1-Fc
In your response, the unit should come after the numeric value.

// recorded ELISA score (ratio of phage binding to CS1-Fc vs IgG-Fc) for SEQ ID NO 82 (designed binder) MGSWSEFWNRLIAIDYRLLALGGSEAELAAFEKEIAAFESELQAYKGKGNPEVEELRDYAAHIRWNLQAYRHN : 16.3 ratio

Next:
// recorded ELISA score (ratio of phage binding to CS1-Fc vs IgG-Fc) for SEQ ID NO 76 (designed binder) MGSWEEFQNRLGAIWDRLEALGGSEAELAAFEKEIAAFESELQAYKGKGNPEVESLRWHAAGIRTRLQAYRHN : 16.6 ratio

// recorded ELISA score (ratio of phage binding to CS1-Fc vs IgG-Fc) for SEQ ID NO 71 (designed binder) MGSWSEFWHRLSAIDARLEALGGSEAELAAFEKEIAAFESELQAYKGKGNPEVEDLRAYAAMIRNVLQAYRHN : 14 ratio

// recorded ELISA score (ratio of phage binding to CS1-Fc vs IgG-Fc) for SEQ ID NO 90 (designed binder) MGSWSEFWIRLDAIRERLWALGGSEAELAAFEKEIAAFESELQAYKGKGNPEVEELRYFAANIRQQLQAYRHN : 16.3 ratio

// recorded ELISA score (ratio of phage binding to CS1-Fc vs IgG-Fc) for SEQ ID NO 66 (designed binder) MGSWAEFWSRLSAIDERLGALGGSEAELAAFEKEIAAFESELQAYKGKGNPEVEELREYAAEIRRVLQAYRHN : 18 ratio
